Test system: Escherichia coli TOP10
Assay: shrunken log2 fold change of peptide-encoding DNA abundance (4.5 h post-induction vs induction); higher = less antimicrobial activity (less host growth inhibition)
Conditions: time post-induction: 4.5 h; library: site-saturation at positions 5, 18, 19, 20
Classify as follows. Reported shrunken log2 fold change greater than or equal to -0.02: 1. Reported shrunken log2 fold change below: 0.

Here's what some known entries look like.
1) RRIRGRPPRLPRPRPRPIKFPRP	1
2) RRIRGRPPRLPRPRPRPSYAPRP	1
3) RRIRTRPPRLPRPRPRPGGPPRP	1
4) RRIRMRPPRLPRPRPRPYALPRP	1
5) RRIRTRPPRLPRPRPRPASWPRP	1

Would you say RRIRKRPPRLPRPRPRPLAWPRP shows shrunken log2 fold change at minimum -0.02?
1

Would you say RRIRKRPPRLPRPRPRPWPFPRP shows shrunken log2 fold change at minimum -0.02?
1

Would you say RRIRTRPPRLPRPRPRPCRRPRP shows shrunken log2 fold change at minimum -0.02?
0

Would you say RRIRRRPPRLPRPRPRPQNKPRP shows shrunken log2 fold change at minimum -0.02?
0

Would you say RRIRSRPPRLPRPRPRPSNCPRP shows shrunken log2 fold change at minimum -0.02?
0

Would you say RRIRNRPPRLPRPRPRPCYLPRP shows shrunken log2 fold change at minimum -0.02?
0

Would you say RRIRSRPPRLPRPRPRPYFGPRP shows shrunken log2 fold change at minimum -0.02?
0

Would you say RRIRSRPPRLPRPRPRPYGHPRP shows shrunken log2 fold change at minimum -0.02?
1

Would you say RRIRPRPPRLPRPRPRPMKCPRP shows shrunken log2 fold change at minimum -0.02?
1

Would you say RRIRIRPPRLPRPRPRPEVPPRP shows shrunken log2 fold change at minimum -0.02?
1

Would you say RRIRQRPPRLPRPRPRPQQLPRP shows shrunken log2 fold change at minimum -0.02?
0

* * *

Test system: Escherichia coli TOP10;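 further: peptides expressed intracellularly from a pBAD plasmid library in pooled LB shake-flask culture, induced with 0.3% L-arabinose, DNA abundance read by NGS, three biological replicates, DESeq2 with apeglm shrinkage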
Test: shrunken log2 fold change of peptide-encoding DNA abundance (4.5 h post-induction vs induction); higher = less antimicrobial activity (less host growth inhibition)
Settings: time post-induction: 4.5 h; library: site-saturation at positions 5, 18, 19, 20
Classify as follows. Reported shrunken log2 fold change greater than or equal to 0.03: YES. Reported shrunken log2 fold change below: NO.

Here's what some known entries look like.
1) RRIRMRPPRLPRPRPRPLKPPRP	YES
2) RRIRDRPPRLPRPRPRPAAAPRP	YES
3) RRIRGRPPRLPRPRPRPKKSPRP	YES

Would you say RRIRVRPPRLPRPRPRPVADPRP shows shrunken log2 fold change at minimum 0.03?
YES

Would you say RRIRLRPPRLPRPRPRPKGEPRP shows shrunken log2 fold change at minimum 0.03?
YES

Would you say RRIRIRPPRLPRPRPRPSTIPRP shows shrunken log2 fold change at minimum 0.03?
NO

Would you say RRIRTRPPRLPRPRPRPHICPRP shows shrunken log2 fold change at minimum 0.03?
NO

Would you say RRIRQRPPRLPRPRPRPEKVPRP shows shrunken log2 fold change at minimum 0.03?
NO

Would you say RRIRWRPPRLPRPRPRPRVHPRP shows shrunken log2 fold change at minimum 0.03?
YES

Would you say RRIRVRPPRLPRPRPRPVDHPRP shows shrunken log2 fold change at minimum 0.03?
NO

Would you say RRIRMRPPRLPRPRPRPITRPRP shows shrunken log2 fold change at minimum 0.03?
YES

Would you say RRIRDRPPRLPRPRPRPFGLPRP shows shrunken log2 fold change at minimum 0.03?
NO

The values you see were collected from the supplement of paper PMC9112550.
